growth overview
System: HCT-15 colon
Experimental protocol: NCI-60 one-dose screen, 48 h (100 = growth as untreated, 0 = no growth, -100 = all killed)
Recorded conditions: 10 µM unless noted
The panel holds about 83,000 compounds, 20% with a hit somewhere; the sample as a whole holds those more often.
Value expressed in %; do not type the unit.

Below, each entry is followed by its recorded growth result.
Problem: Reported growth for "CCOC(CN=Cc1cc(C)c2[nH]c3ccccc3c2c1C)OCC" : what is it?
Solution: 97.8

Problem: Reported growth for "Cc1ccc2c(c1)Sc1c(ccc3ccccc13)N2" : what is it?
Solution: 32.3

Problem: Reported growth for "COc1ccc(/C=C/c2c(C(=O)/C=C/c3ccc(F)cc3)c(C)nc3ccccc23)cc1" : what is it?
Solution: 10.8

Problem: Reported growth for "O=Cc1c[nH]c2ccc(-c3csc4ccccc34)cc12" : what is it?
Solution: 29

Others:
Problem: Reported growth for "O=C(O)c1ccc2c(c1)CCC2" : what is it?
Solution: 104

Problem: Reported growth for "Cc1cc(Cl)ccc1Nc1nc(C(F)(F)F)ccc1C(=O)N/N=C/c1ccc(N(C)C)cc1" : what is it?
Solution: 15.9

Problem: Reported growth for "Cc1ccc(Cc2cnc(NC(=O)c3ccc4noc(-c5ccccc5)c4c3)s2)cc1" : what is it?
Solution: 88.6

Problem: Reported growth for "N#C/C(=C\c1ccc(-c2ccccc2F)o1)c1nc(-c2ccco2)cs1" : what is it?
Solution: 62.1

Problem: Reported growth for CC1=C(SCCC(=O)OC(C[Se]C2=C(C)C(=O)c3ccccc3C2=O)C(=O)NCCCCCC(=O)OCc2ccccc2)C(=O)c2ccccc2C1=O (stereo not given) : what is it?
Solution: 56.5

Problem: Reported growth for "O=C(CSc1nccc(Nc2ccc(S(=O)(=O)Nc3nccs3)cc2)n1)c1ccc(F)cc1" : what is it?
Solution: 98.1

---

System: UACC-257 melanoma
Experimental protocol: NCI-60 one-dose screen, 48 h (100 = growth as untreated, 0 = no growth, -100 = all killed)
Recorded conditions: 10 µM unless noted
This is part of a sample that, as a whole, favours compounds with a hit. Of some 83,000 tested, about 20% had one in any assay.
Readout type: growth (%)
Value expressed in %; do not type the unit.

Below, each entry is followed by its recorded growth result.
Problem: Identify the measured growth of "Cc1ccc(/C=C2\C(=O)N(C)c3ccc(S(=O)(=O)Nc4ccc(C(C)(C)C)cc4)cc32)s1" for UACC-257 melanoma.
Solution: 76

Problem: Identify the measured growth of "O=c1c2c3c(sc2n2c(-c4cc(-c5ccccc5)nn4-c4ccccc4)nnc2n1Cc1ccccc1)CCCC3" for UACC-257 melanoma.
Solution: 106

Problem: Identify the measured growth of "COc1cc2ncn3c(=O)c4c5c(sc4nc3c2cc1OC)CCCC5" for UACC-257 melanoma.
Solution: 119

Problem: Identify the measured growth of "COc1ccc(NC(=O)CSc2nc(C)c(C(C)=O)n2-c2ccc(Cl)cc2)cc1" for UACC-257 melanoma.
Solution: 101

Others:
Problem: Identify the measured growth of "C[C@]12CC[C@@H]3c4cc(OC(F)F)c(O)cc4CC[C@H]3[C@@H]1CC[C@@H]2OS(N)(=O)=O" for UACC-257 melanoma.
Solution: 71.8
